What max response was measured for each of the following?
assay.summary: Cycloheximide Counterscreen for Small Molecule Inhibitors of Shiga Toxin; note: read at 38.3 µM for the half of the compounds with a filed dose; 0% is about no effect
experimental.conditions: cell reporter, cycloheximide protein synthesis inhibition counterscreen; hits give high values
Screen size: about 300,000 compounds; about 37,000 (12%) were called active. What follows is part of a selection rich in actives, with near analogues and random picks from the rest.
Give bare numbers, in %.

Solved cases below.
>  <compound>
CC(/C=C/c1ccco1)=N/NC(=O)C1COc2ccccc2O1 (configuration not stated)

>  <units>
%

>  <experimental.value>
7.66

$$$$
>  <compound>
CN(C)C(=O)Oc1ccc2c(c1)O/C(=C\c1ccccc1)C2=O

>  <units>
%

>  <experimental.value>
44.1

$$$$
>  <compound>
COC(=O)C(C)Oc1ccc2c(c1)O/C(=C\c1cccc(Br)c1)C2=O (configuration not stated)

>  <units>
%

>  <experimental.value>
1.99

$$$$
>  <compound>
O=C(Nc1ccc2c(c1)OCO2)c1sc2cc(Cl)ccc2c1Cl

>  <units>
%

>  <experimental.value>
2.36

$$$$
>  <compound>
CC(Sc1nc(-c2ccccc2)cc(C(F)(F)F)n1)C(=O)Nc1ccc2c(c1)OCO2 (configuration not stated)

>  <units>
%

>  <experimental.value>
-1.84

$$$$

Field: max response. Fill in for each record below.
1. Cc1ccnc(N2CCN(C(=O)CSc3nc4ccccc4nc3N3CCCCC3)CC2)c1
2. CC(Sc1nc2cc(Cl)ccc2s1)C(=O)Nc1ccc2c(c1)OCO2 (configuration not stated)

Reply:
[-5.65, 29]

Field: max response. Fill in for each record below.
1. O=C(Nc1cccnc1)c1noc2c1CCCCC2
2. O=C(CCCNS(=O)(=O)c1cccc2nsnc12)NCCN1CCN(c2ccccc2F)CC1
3. O=C(CNC(=O)OCc1ccccc1)NC1CCCCNC1=O (configuration not stated)
4. CC(=O)c1cccc(NC(=O)C2COc3ccccc3O2)c1 (configuration not stated)
5. CCC(C)(C)n1nnnc1CN1CCN(c2nc3ccc(C)cc3cc2C#N)CC1
6. O=C(c1ccc2c(c1)OCO2)N1CCNc2ccccc2C1

Reply:
1: 32.5; 2: -4.37; 3: 1.1; 4: 23.2; 5: -1.82; 6: 3.63

Field: max response. Fill in for each record below.
1. CC(=O)Nc1ccc(-c2csc(NC(=O)Nc3ccccc3)n2)cc1
2. CCN(CC)Cc1c(C(=O)N/N=C/c2cccc(OCc3ccc(F)cc3)c2)nnn1-c1nonc1N
3. CC(=O)/C(=N\Nc1ccc(Cl)cc1Cl)Sc1cccc2cccnc12
4. CCC(=O)N1c2ccccc2NC2=C(C(=O)CCC2)C1c1ccco1 (configuration not stated)
5. CC(C)(C)c1ccccc1NC(=O)CN1C(=O)NC2(CCCC2)C1=O

Reply:
10.8
8.82
19.1
-5.4
-4.11

Field: max response. Fill in for each record below.
1. Cc1onc(-c2ccccc2)c1C(=O)Nc1ccccc1C#N
2. O=C(NNc1ccccc1Cl)C(O)(c1cccc(C(F)(F)F)c1)c1cccc(C(F)(F)F)c1
3. CC1(c2ccc(Cl)cc2)NC(=O)N(CC(=O)c2ccc3c(c2)OCO3)C1=O (configuration not stated)

Reply:
1. 3.86
2. -4.75
3. 14.2

Ask: Report max response for `Cn1c(Cc2cccc3ccccc23)nnc1SCC(=O)N1CCN(c2cccc(Cl)c2)CC1` please.
Reply: -3.1

Reference source: PubChem BioAssay AID2314
